experimental system: SARS-CoV-2 3CLpro (Severe acute respiratory syndrome coronavirus 2)
experimental protocol: biochemical
applied conditions: inhibition of SARS-CoV-2 3CLpro; 15 nM 3CLpro, 25 μM fluorogenic substrate, 37° C.; read-out: Inhibitory Activity (IC50)
observation type: IC50

Here are 8 compounds together with their reported answers.
1) O=C(NC1CC(F)(F)C1)c1cc(Br)cc([N+](=O)[O-])c1N[C@@H]1COCC[C@@H]1NC(=O)c1cncc2ccccc12 [Compound 126]
< 0.1 µM
2) CNC(=O)c1cc(Br)cc([N+](=O)[O-])c1N[C@H]1CN(C(=O)c2cc(=O)[nH]c3ccccc23)CCC1(F)F [Compound 103]
< 0.1 µM
3) CNC(=O)c1cc(Cl)cc([N+](=O)[O-])c1N[C@H]1CN(C(=O)c2cncc3ccncc23)CCC1(F)F [Compound 97]
< 0.1 µM
4) CNC(=O)c1cc(Br)cc([N+](=O)[O-])c1N[C@H]1CN(C(c2cncc3ccccc23)C(F)(F)F)CCC1(F)F (some centres unmarked) [Compound 140]
≥ 10 µM
5) O=C(NCC(F)(F)F)c1cc(Br)cc([N+](=O)[O-])c1N[C@H]1CN(C(=O)c2cncc3ccccc23)CCC1(F)F [Compound 148]
< 0.1 µM
6) O=C(NC1CC(F)(F)C1)c1cc(Br)cc([N+](=O)[O-])c1N1CCC2(CCN(C(=O)c3cncc(C(F)(F)F)c3)C2)C1 (centres unmarked) [Compound 22]
1 to 10 µM
7) CNC(=O)c1cc(Br)cc([N+](=O)[O-])c1N1CCC2(CCN(C(=O)c3cncnc3)C2)C1 (centres unmarked) [Compound 21]
≥ 10 µM
8) CNC(=O)c1cc(Br)cc([N+](=O)[O-])c1N[C@H]1CN(C(=O)c2cncc3ccccc23)CC[C@H]1C [Compound 141]
0.1 to 1 µM

Each of the following entries comes with a recorded value; kindly state IC50 for each.
1. CC(C)(O)CNC(=O)c1cc(Br)cc([N+](=O)[O-])c1N[C@H]1CN(C(=O)c2cncc3ccccc23)CCC1(F)F [Compound 154]
2. COC1CN(C(=O)c2cc(Br)cc([N+](=O)[O-])c2N[C@H]2CN(C(=O)c3cncc4ccccc34)CCC2(F)F)C1 [Compound 38]

[A]
1: < 0.1 µM; 2: < 0.1 µM

Each of the following entries comes with a recorded value; kindly state IC50 for each.
1. Cc1c(Cl)cncc1C(=O)N1CCC2(CCN(c3c(C(=O)NC4CC(F)(F)C4)cc(Br)cc3[N+](=O)[O-])C2)C1 (centres unmarked) [Compound 24]
2. CNC(=O)c1cc(Br)cc([N+](=O)[O-])c1N[C@@H]1CCN(C(=O)c2cncc3ccccc23)C1 [Compound 64]
3. CC1(NC(=O)c2cc(Cl)cc([N+](=O)[O-])c2N[C@H]2CN(C(=O)c3cncc4ccccc34)CCC2(F)F)CC1 [Compound 152]

[A]
1 to 10 µM
0.1 to 1 µM
< 0.1 µM

[Q] Tell me the measured IC50 of CNC(=O)c1cc(Br)cc([N+](=O)[O-])c1N1CCc2[nH]nc(-c3cncc4ccccc34)c2C1 [Compound 69] , please.
[A] 1 to 10 µM

###

experimental system: SARS-CoV-2 3CLpro (Severe acute respiratory syndrome coronavirus 2)
pIC50: −log10 of the molar value.
So I've got a bunch of compounds here, and I need their pIC50 values.

Here are 5 compounds together with their reported answers.
1) NC(=O)c1cc(Br)cc([N+](=O)[O-])c1N[C@H]1CN(C(=O)c2cncc3ccccc23)CCC1(F)F
> 7.00
2) O=C(NC1CC(F)(F)C1)c1cc(Br)cc(C(F)(F)F)c1N[C@H]1CN(C(=O)c2cncc3ccccc23)CCC1(F)F
> 7.00
3) CNC(=O)c1cc(Br)cc([N+](=O)[O-])c1N1CC[C@H](CNC(=O)c2cncc3ccccc23)C1
6.00 to 7.00
4) CNC(=O)c1cc(Br)cc([N+](=O)[O-])c1N[C@@H]1CCCN(C(=O)c2cncc3ccccc23)C1
> 7.00
5) CNC(=O)c1cc(Br)cc([N+](=O)[O-])c1N[C@@H]1CCCC[C@@H]1NC(=O)c1cncnc1
≤ 5.00

Each of the following entries comes with a recorded value; kindly state pIC50 for each.
1. CC(C)C(Nc1c(C(=O)N[C@H](C)C(F)(F)F)cc(Br)cc1[N+](=O)[O-])C1CN(C(=O)c2cncc3ccccc23)C1 (stereo partly shown)
2. O=C(c1cc(Br)cc([N+](=O)[O-])c1N[C@H]1CN(C(=O)c2cncc3ccccc23)CCC1(F)F)N1CC(O)C1

[A]
1. > 7.00
2. > 7.00

Reference for the values: patent US20260315452A1
